Where these numbers come from: PubChem BioAssay AID2060612

Reported values of pIC50 for individual entries
System: 565232-114-T-J1-PDC complex spheroid viability
procedure_details: Anticancer human tumor 565232-114-T-J1-PDC patient-derived bladder carcinoma cell line growth inhibition [CLK]
details: curve of first compound; second compound 0.1 µM
pIC50: −log10 of the molar value.

Query: Any idea what pIC50 was measured for Nc1ccn(C2OC(CO)C(O)C2(F)F)c(=O)n1 (stereo not given) + CNC(=O)c1ccc(Nc2nc(OC3CCCC3)c3c(-c4ccc5nc(C)oc5c4)c[nH]c3n2)c(OC)c1 ?
Response: > 7.50

Query: Any idea what pIC50 was measured for COc1ccc([C@@H](O)c2cc(-c3ncnc4cc(N5CCOCC5)ccc34)c(F)cc2Cl)nn1 + CN1CCN(c2cc(C(=O)Nc3cc4cc(-c5cnn(C)c5)ccc4cn3)ccn2)CC1 ?
Response: < 5.00

Query: Any idea what pIC50 was measured for Cn1ncnc1[C@H]1c2n[nH]c(=O)c3cc(F)cc(c23)N[C@@H]1c1ccc(F)cc1 + CNC(=O)c1ccc(Nc2nc(OC3CCCC3)c3c(-c4ccc5nc(C)oc5c4)c[nH]c3n2)c(OC)c1 ?
Response: > 9.50

Query: Any idea what pIC50 was measured for C#Cc1c(F)ccc2cc(O)cc(-c3ncc4c(N5CC6CCC(C5)N6)nc(OCC56CCCN5CC(F)C6)nc4c3F)c12 (stereo not given) + CN1CCN(c2cc(C(=O)Nc3cc4cc(-c5cnn(C)c5)ccc4cn3)ccn2)CC1 ?
Response: < 5.00

Query: Any idea what pIC50 was measured for COc1cccc2c1C(=O)c1c(O)c3c(c(O)c1C2=O)CC(O)(C(=O)CO)CC3OC1CC(N)C(O)C(C)O1 (stereo not given) + CNC(=O)c1ccc(Nc2nc(OC3CCCC3)c3c(-c4ccc5nc(C)oc5c4)c[nH]c3n2)c(OC)c1 ?
Response: > 7.50

Query: Any idea what pIC50 was measured for COc1c(OCCCN2CCOCC2)ccc2c3n(c(=NC(=O)c4cnc(N)nc4)nc12)CCN3 + CNC(=O)c1ccc(Nc2nc(OC3CCCC3)c3c(-c4ccc5nc(C)oc5c4)c[nH]c3n2)c(OC)c1 ?
Response: > 8.50

Query: Any idea what pIC50 was measured for CCN1CCN(Cc2ccc(Nc3ncc(F)c(-c4cc(F)c5nc(C)n(C(C)C)c5c4)n3)nc2)CC1 + CNC(=O)c1ccc(Nc2nc(OC3CCCC3)c3c(-c4ccc5nc(C)oc5c4)c[nH]c3n2)c(OC)c1 ?
Response: < 6.00

Query: Any idea what pIC50 was measured for CC(C)CC(NC(=O)C(Cc1ccccc1)NC(=O)c1cnccn1)B(O)O (stereo not given) + CNC(=O)c1ccc(Nc2nc(OC3CCCC3)c3c(-c4ccc5nc(C)oc5c4)c[nH]c3n2)c(OC)c1 ?
Response: 9.00

====

Tested on: 565232-114-T-J1-PDC complex spheroid viability
procedure_details: Anticancer human tumor 565232-114-T-J1-PDC cell line growth inhibition [CLK];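 note: spheroids exposed to compounds for 7 days before readout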;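 for viability, T/C: 100% = DMSO vehicle wells with luminescence normalized to vehicle control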
details: second compound 10 µM; first compound 10 µM; stronger effect = lower value
measurement_name: viability, T/C

compound	system_tested	observed
C#Cc1c(F)ccc2cc(O)cc(-c3ncc4c(N5CC6CCC(C5)N6)nc(OCC56CCCN5CC(F)C6)nc4c3F)c12 (stereo not given) + CNC(=O)c1ccc(Nc2nc(OC3CCCC3)c3c(-c4ccc5nc(C)oc5c4)c[nH]c3n2)c(OC)c1	565232-114-T-J1-PDC complex spheroid viability	9.9%

Query: Any idea what viability, T/C was measured for CC(CO)NC(=O)c1cc(-c2ccc(Cl)cc2)nn(-c2cnn(C)c2)c1=O (stereo not given) + CNC(=O)c1ccc(Nc2nc(OC3CCCC3)c3c(-c4ccc5nc(C)oc5c4)c[nH]c3n2)c(OC)c1 ?
Response: 17.7%

Query: Any idea what viability, T/C was measured for O=C(c1cc(Cc2n[nH]c(=O)c3ccccc23)ccc1F)N1CCN(C(=O)C2CC2)CC1 + CN1CCN(c2cc(C(=O)Nc3cc4cc(-c5cnn(C)c5)ccc4cn3)ccn2)CC1 ?
Response: 0.28%

Query: Any idea what viability, T/C was measured for C=CC(=O)N1CCN(c2nc(=O)n(-c3c(C)ccnc3C(C)C)c3nc(-c4c(O)cccc4F)c(F)cc23)C(C)C1 (stereo not given) + CNC(=O)c1ccc(Nc2nc(OC3CCCC3)c3c(-c4ccc5nc(C)oc5c4)c[nH]c3n2)c(OC)c1 ?
Response: 25%

Query: Any idea what viability, T/C was measured for CC1(C)CCC(CN2CCN(c3ccc(C(=O)NS(=O)(=O)c4ccc(NCC5CCOCC5)c([N+](=O)[O-])c4)c(Oc4cnc5[nH]ccc5c4)c3)CC2)=C(c2ccc(Cl)cc2)C1 + CN1CCN(c2cc(C(=O)Nc3cc4cc(-c5cnn(C)c5)ccc4cn3)ccn2)CC1 ?
Response: 0.8%

Query: Any idea what viability, T/C was measured for O=c1[nH]cc(F)c(=O)[nH]1 + CNC(=O)c1ccc(Nc2nc(OC3CCCC3)c3c(-c4ccc5nc(C)oc5c4)c[nH]c3n2)c(OC)c1 ?
Response: 18.9%

Query: Any idea what viability, T/C was measured for C#Cc1c(F)ccc2cc(O)cc(-c3ncc4c(N5CC6CCC(C5)N6)nc(OCC56CCCN5CC(F)C6)nc4c3F)c12 (stereo not given) + CN1CCN(c2cc(C(=O)Nc3cc4cc(-c5cnn(C)c5)ccc4cn3)ccn2)CC1 ?
Response: 0.83%

Query: Any idea what viability, T/C was measured for CC(CO)NC(=O)c1cc(-c2ccc(Cl)cc2)nn(-c2cnn(C)c2)c1=O (stereo not given) + CN1CCN(c2cc(C(=O)Nc3cc4cc(-c5cnn(C)c5)ccc4cn3)ccn2)CC1 ?
Response: 3.6%

====

Tested on: 565232-114-T-J1-PDC complex spheroid viability
procedure_details: Anticancer human tumor 565232-114-T-J1-PDC cell line growth inhibition [CLK];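 note: spheroids exposed to compounds for 7 days before readout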;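 for viability, T/C: 100% = DMSO vehicle wells with luminescence normalized to vehicle control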
details: second compound 0.1 µM; first compound 0.0316 µM; stronger effect = lower value
Description: A high-throughput screen of multi-cell type tumor spheroids was designed to identify active combinations of […] and targeted small molecules. Complex spheroids include a stromal component modeled by human endothelial cells (HUVEC) and fibroblasts modeled by human mesenchymal stem cells (MSCs). […] Compounds. […] If the clinical Cmax for an agent had not been determined, the highest concentration tested was 10 microM. […]
Reported values of viability, T/C for individual entries
Output spec: scalar in %, unitless text.

Check out these entries, answers already filled in.
molecule	unit_annotation	viability, T/C
Nc1ccccc1NC(=O)c1ccc(CNC(=O)OCc2cccnc2)cc1 + CN1CCN(c2cc(C(=O)Nc3cc4cc(-c5cnn(C)c5)ccc4cn3)ccn2)CC1	%	107
COc1c(OCCCN2CCOCC2)ccc2c3n(c(=NC(=O)c4cnc(N)nc4)nc12)CCN3 + CNC(=O)c1ccc(Nc2nc(OC3CCCC3)c3c(-c4ccc5nc(C)oc5c4)c[nH]c3n2)c(OC)c1	%	29.8
CCCS(=O)(=O)Nc1ccc(F)c(C(=O)c2c[nH]c3ncc(-c4ccc(Cl)cc4)cc23)c1F + CNC(=O)c1ccc(Nc2nc(OC3CCCC3)c3c(-c4ccc5nc(C)oc5c4)c[nH]c3n2)c(OC)c1	%	56.5

Query: Any idea what viability, T/C was measured for Nc1ccccc1NC(=O)c1ccc(CNC(=O)OCc2cccnc2)cc1 + CNC(=O)c1ccc(Nc2nc(OC3CCCC3)c3c(-c4ccc5nc(C)oc5c4)c[nH]c3n2)c(OC)c1 ?
Response: 51

Query: Any idea what viability, T/C was measured for O=C(c1cc(Cc2n[nH]c(=O)c3ccccc23)ccc1F)N1CCN(C(=O)C2CC2)CC1 + CN1CCN(c2cc(C(=O)Nc3cc4cc(-c5cnn(C)c5)ccc4cn3)ccn2)CC1 ?
Response: 122

Query: Any idea what viability, T/C was measured for Nc1ccn(C2OC(CO)C(O)C2(F)F)c(=O)n1 (centres undefined) + CN1CCN(c2cc(C(=O)Nc3cc4cc(-c5cnn(C)c5)ccc4cn3)ccn2)CC1 ?
Response: 112

Query: Any idea what viability, T/C was measured for O=C(c1cc(Cc2n[nH]c(=O)c3ccccc23)ccc1F)N1CCN(C(=O)C2CC2)CC1 + CNC(=O)c1ccc(Nc2nc(OC3CCCC3)c3c(-c4ccc5nc(C)oc5c4)c[nH]c3n2)c(OC)c1 ?
Response: 49

Query: Any idea what viability, T/C was measured for C#Cc1c(F)ccc2cc(O)cc(-c3ncc4c(N5CC6CCC(C5)N6)nc(OCC56CCCN5CC(F)C6)nc4c3F)c12 (centres undefined) + CNC(=O)c1ccc(Nc2nc(OC3CCCC3)c3c(-c4ccc5nc(C)oc5c4)c[nH]c3n2)c(OC)c1 ?
Response: 49.6

Query: Any idea what viability, T/C was measured for CC(CO)NC(=O)c1cc(-c2ccc(Cl)cc2)nn(-c2cnn(C)c2)c1=O (centres undefined) + CNC(=O)c1ccc(Nc2nc(OC3CCCC3)c3c(-c4ccc5nc(C)oc5c4)c[nH]c3n2)c(OC)c1 ?
Response: 50.5
